# Lookup of reported self-cleavage kobs at 40 uM GlcN6P keyed by entry
B1: glmS ribozyme (parent)
chain: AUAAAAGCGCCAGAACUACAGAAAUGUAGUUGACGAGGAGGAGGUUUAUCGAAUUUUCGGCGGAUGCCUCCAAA

# Variants of: B1
# Run description: self-cleavage kobs at 40 uM GlcN6P; higher = faster cleavage; RNA array
# Recorded conditions: with glucosamine-6-phosphate
Fewer inactive variants are shown than the library holds.
Readout label: self-cleavage kobs at 40 uM GlcN6P

>>> meas_value("AUAAAAGCGCCCGAACUACAGAAAUGUAGUUGACGAGGAGGAGGUUUAUCGAAUUUUCGGCGGAUGGCUCCAAA")
"6.89e-05 s⁻¹"
>>> meas_value("AUAAAAGCGCCAGUACUACAGAAAUGUAGUUGACGAGGAGUAGGUUUAUCGAAUUUUCGGCGGAUGCAUUCAAA")
"< 1e-05 s⁻¹"
>>> meas_value("AUAAAAGCGCCAGAACUACAGAAAUGUAGUUGAGGAGGAGGAGGUUUAUCGAAUUUUCGUCGGAUGCCUCCAAA")
"< 1e-05 s⁻¹"
>>> meas_value("AUAAAAGCGCCAGAACUACAGAAAUGUAGUUGACGAGGAGGAGGUAUAUCGAAUUUUCGGCGGAUGCGUCCAAA")
"< 1e-05 s⁻¹"
>>> meas_value("AUAAAAGCGCCAGAAUUACAGAAAUGUAAUUGACGACGAGGAGGUUUAUCGAAUUUUCGGCGGAUGCCUCCAAA")
"< 1e-05 s⁻¹"
>>> meas_value("AUAAAAGCGCCAGAACUACAGAAAUGUAGUUCACGAGGAGGAGUUUUAUCGAAUUAUCGGCGGAUGCCUCCAAA")
"< 1e-05 s⁻¹"
>>> meas_value("AUAAAAACGCCAUAACUACAGAAAUGUAGUUGACGAGGAGGAGGUUUAUCGAAUUUUCGGCGGAUGCCGCAAAA")
"0.00031 s⁻¹"
>>> meas_value("AUAAAAGCGCCAGAACUACAGAAAUGUAGUUGACGAGAAGGAGCUUAAUCGAAUUUUCGGCGGAUGCCUCCAAA")
"< 1e-05 s⁻¹"
>>> meas_value("AUAAAAGCGCCAGAACUACAGAAAUGUAGUCGACGAGGAGGAGGUUUAUCGAAUUUUCGCCGGAUGCCUCCAAA")
"< 1e-05 s⁻¹"
>>> meas_value("AUAAAAGCGCCAGAACUACAGAAAUGUAGUUGACGAGGAGGAGGUUUAUCGAACUUUCGGCGGGUGCCUCCAAA")
"0.000616 s⁻¹"
>>> meas_value("AUAAAAGCGCCAGAACUACAGAAAUGUAGUUGACGAGAAGGAAGUUUAUCGAAUUUUCGGCGGAUGCCUCCAAA")
"< 1e-05 s⁻¹"
>>> meas_value("AUAAAUGCGCCAGAACUACAGAAAUGUAGUUGACGAGUAGGAGGUUUAUCGAAUUUUCGGCGGAUGCCUCAAAA")
"< 1e-05 s⁻¹"
>>> meas_value("AUAAACGCGCGGGAACUACAGAAAUGUAGUUGACGAGGAGGAGGUUUAUCGAAUUUUCGGCGGAUGCCUUCAAA")
"< 1e-05 s⁻¹"
>>> meas_value("AUAAAAGCGCCAGAACUACAGAAAUGUAGUUGGCGAGGAGGAGGUUUAUCAAAUUUUCGGCGGAUGCCUCCAAA")
"< 1e-05 s⁻¹"
>>> meas_value("AUAAAAGCGCCAGAACUACAGAAAUGUAGUAGACGAGGAGGAGGUUUAUCGAAUUUUCGGCGGAUGCAUCCAAA")
"< 1e-05 s⁻¹"
>>> meas_value("AUAAAAGCGUCAGAACUACAGAAAUGUAGUUGACGAGGAGGAGGUUUAUCGAAUUUUCGGUGGAUGCCUCCAAA")
"< 1e-05 s⁻¹"
>>> meas_value("AUAAAAGCGCCAGAACUACAGAAAUGUAGUUGACGAGUAGGAGGUUUAUAGAAUUUUCGGCGGAUGGCUCCAAA")
"8.67e-05 s⁻¹"
>>> meas_value("AUAAAGGCGCCAGAACUACAGAAAUGUAGUAGACGAGGAGGAGGUGUAUCGAAUUUUCGGCGGAUGCGUCCAAA")
"< 1e-05 s⁻¹"
>>> meas_value("AUAAAAGCGCCAGAACUACAGAAAUGUAGUUGCCGGGGAGGAGGUUUAUCGAAUUUUCGGCUGAUACCUCCAAA")
"< 1e-05 s⁻¹"
>>> meas_value("AUAAAAGCGCCAGAACUACAUAAAUGUAGUUGACGAGGAGGAUGUUUAUCUAAUUUUCGGCGGAUGCCUCCAAA")
"< 1e-05 s⁻¹"
>>> meas_value("AUAAAAGCGCCAGAACUACAGAAAUGUAGUAGACCUGGAGGAGGUUUAUCGAAUUUUCGGCGGAUGCCUCCAAA")
"< 1e-05 s⁻¹"
>>> meas_value("AUAAAAGCGCCAGAACUACAGAAAUGUAGUUGACGAUGAGGAGGUUUAUCGAAGUUUCGGCGGAUGCCUCCAAA")
"< 1e-05 s⁻¹"
